Recorded FASN activity, % of control cells values for a group of compounds are listed next.
target: FASN (Homo sapiens); construct: endogenous in cells; host or cells: SK-Br3 breast cancer cells; test: Fatty acid synthase activity assay in SK-Br3 cells (NADPH oxidation, particle-free supernatants); assay type: cell-based; set-up: concentration or dose not given beside the values; settings: SK-Br3 cells, 24 h exposure
Sequence (P49327 whole entry): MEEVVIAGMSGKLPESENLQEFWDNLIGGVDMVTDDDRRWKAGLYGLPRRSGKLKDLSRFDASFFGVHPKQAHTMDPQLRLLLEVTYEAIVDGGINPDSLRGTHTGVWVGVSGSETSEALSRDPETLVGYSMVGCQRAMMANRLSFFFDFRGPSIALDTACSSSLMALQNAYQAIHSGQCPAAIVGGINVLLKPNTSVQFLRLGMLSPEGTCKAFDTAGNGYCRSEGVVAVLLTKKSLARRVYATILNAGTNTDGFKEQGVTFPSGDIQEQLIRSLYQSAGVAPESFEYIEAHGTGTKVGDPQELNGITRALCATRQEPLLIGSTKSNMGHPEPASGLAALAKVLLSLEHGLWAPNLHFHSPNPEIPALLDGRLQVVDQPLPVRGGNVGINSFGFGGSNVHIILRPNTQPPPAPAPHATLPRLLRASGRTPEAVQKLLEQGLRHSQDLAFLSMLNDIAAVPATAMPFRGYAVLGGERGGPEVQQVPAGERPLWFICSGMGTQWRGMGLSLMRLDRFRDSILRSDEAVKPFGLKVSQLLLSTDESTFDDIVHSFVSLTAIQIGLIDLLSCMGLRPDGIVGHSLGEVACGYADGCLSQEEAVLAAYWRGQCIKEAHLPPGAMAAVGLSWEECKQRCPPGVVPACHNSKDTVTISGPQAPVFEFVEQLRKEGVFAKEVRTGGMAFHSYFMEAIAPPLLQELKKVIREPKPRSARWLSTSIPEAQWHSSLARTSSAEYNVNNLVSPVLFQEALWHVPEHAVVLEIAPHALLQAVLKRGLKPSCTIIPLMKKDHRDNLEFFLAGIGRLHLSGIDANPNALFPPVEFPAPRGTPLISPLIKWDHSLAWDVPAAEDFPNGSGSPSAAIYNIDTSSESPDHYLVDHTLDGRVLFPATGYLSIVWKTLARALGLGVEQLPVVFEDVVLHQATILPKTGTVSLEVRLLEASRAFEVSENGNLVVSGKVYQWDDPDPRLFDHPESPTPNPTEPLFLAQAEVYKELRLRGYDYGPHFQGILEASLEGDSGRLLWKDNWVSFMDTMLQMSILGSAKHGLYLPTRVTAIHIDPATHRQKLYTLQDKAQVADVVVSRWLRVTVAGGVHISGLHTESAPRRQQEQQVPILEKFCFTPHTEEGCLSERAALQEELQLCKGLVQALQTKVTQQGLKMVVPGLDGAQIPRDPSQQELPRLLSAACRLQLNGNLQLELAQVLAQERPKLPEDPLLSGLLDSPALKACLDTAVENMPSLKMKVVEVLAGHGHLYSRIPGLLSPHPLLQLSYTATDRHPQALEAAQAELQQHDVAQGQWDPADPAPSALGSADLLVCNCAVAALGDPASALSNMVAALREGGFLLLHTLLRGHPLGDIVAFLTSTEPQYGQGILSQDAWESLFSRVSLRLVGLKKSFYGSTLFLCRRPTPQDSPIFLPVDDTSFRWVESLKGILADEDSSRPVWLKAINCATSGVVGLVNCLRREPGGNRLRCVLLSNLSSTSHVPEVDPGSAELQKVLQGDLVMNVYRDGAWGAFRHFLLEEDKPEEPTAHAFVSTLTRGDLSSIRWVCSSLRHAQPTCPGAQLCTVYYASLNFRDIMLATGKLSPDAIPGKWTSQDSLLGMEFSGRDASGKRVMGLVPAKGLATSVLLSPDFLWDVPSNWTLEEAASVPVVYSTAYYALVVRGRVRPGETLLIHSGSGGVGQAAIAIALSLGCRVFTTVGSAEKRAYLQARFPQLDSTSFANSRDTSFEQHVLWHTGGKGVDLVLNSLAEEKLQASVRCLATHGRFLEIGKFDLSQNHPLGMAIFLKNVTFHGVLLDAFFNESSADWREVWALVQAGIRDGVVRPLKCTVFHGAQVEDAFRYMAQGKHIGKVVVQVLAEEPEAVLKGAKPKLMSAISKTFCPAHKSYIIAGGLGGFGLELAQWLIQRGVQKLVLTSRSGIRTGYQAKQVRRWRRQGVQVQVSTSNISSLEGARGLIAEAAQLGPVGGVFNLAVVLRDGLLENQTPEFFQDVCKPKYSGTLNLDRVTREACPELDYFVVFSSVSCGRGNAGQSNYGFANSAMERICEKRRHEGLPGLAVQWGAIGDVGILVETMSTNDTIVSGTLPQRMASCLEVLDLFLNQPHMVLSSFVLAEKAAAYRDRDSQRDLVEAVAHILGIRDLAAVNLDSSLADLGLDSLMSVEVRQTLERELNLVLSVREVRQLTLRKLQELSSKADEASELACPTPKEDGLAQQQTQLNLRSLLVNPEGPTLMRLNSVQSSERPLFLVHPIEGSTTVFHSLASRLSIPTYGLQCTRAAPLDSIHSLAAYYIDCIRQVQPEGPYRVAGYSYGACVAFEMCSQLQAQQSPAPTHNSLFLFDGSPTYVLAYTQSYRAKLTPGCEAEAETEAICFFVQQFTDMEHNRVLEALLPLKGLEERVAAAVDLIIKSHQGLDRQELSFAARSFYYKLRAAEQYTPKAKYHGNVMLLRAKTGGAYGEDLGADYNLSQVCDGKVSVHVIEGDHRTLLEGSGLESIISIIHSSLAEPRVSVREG
Answer with a number only, understood to be in %.

Consider the reported FASN activity, % of control cells for these compounds:
QUERY_SMILES | UNIT_ABBREVIATION | FASN activity, % of control cells
O=C(Oc1cc(OC(=O)c2cc(O)c(O)c(O)c2)c2ccccc2c1)c1cc(O)c(O)c(O)c1 | % | 10
O=C(Oc1cccc2c(OC(=O)c3cc(O)c(O)c(O)c3)cccc12)c1cc(O)c(O)c(O)c1 | % | 76

Now consider the entry below.
Item: O=C(Oc1cc2ccccc2cc1OC(=O)c1cc(O)c(O)c(O)c1)c1cc(O)c(O)c(O)c1 Test system: FASN (Homo sapiens) Read-out: FASN activity, % of control cells Value: ?
69

* * *

Test system: Non-malignant fibroblasts N-1
Assay: MTT cytotoxicity assay, non-malignant fibroblasts N-1
Format: cell-based
Conditions: Fibroblast; non-malignant fibroblasts, MTT, 48 h; read-out: IC50, growth inhibition, Fibroblasts
Protocol: MCF-7 and MDA-MB-231 breast cancer cells were obtained from the American Type Culture Collection (ATCC) and were routinely grown in Dulbecco's modified Eagle's medium (DMEM, Gibco) containing 10% fetal bovine serum (FBS, Bio-Whittaker), 1% L-glutamine, 1% sodium pyruvate, 50 U/mL penicillin and 50 μg/mL streptomycin. […] Drug sensitivity was determined using a standard colorimetric MTT (3-4,5-dimethylthiazol-2-yl-2,5-diphenyltetrazolium bromide) assay. […]
pIC50: −log10 of the molar value.
// values below are reported pIC50

// below: answered compounds
QUERY_SMILES | pIC50
COc1cc(OC(=O)c2cc(O)c(O)c(O)c2)ccc1OC(=O)c1cc(O)c(O)c(O)c1 | < 4.30
O=C(Oc1ccc(OC(=O)c2cc(O)c(O)c(O)c2)c2ccccc12)c1cc(O)c(O)c(O)c1 | < 3.82
O=C(Oc1cc2c(c(OC(=O)c3cc(O)c(O)c(O)c3)c1)CCCC2)c1cc(O)c(O)c(O)c1 | < 3.82
O=C(Oc1cc(OC(=O)c2cc(O)c(O)c(O)c2)c2ccccc2c1)c1cc(O)c(O)c(O)c1 | < 3.82
Cc1cc(OC(=O)c2cc(O)c(O)c(O)c2)ccc1OC(=O)c1cc(O)c(O)c(O)c1 | < 4.00

# input compound: O=C(Oc1ccc2cc(OC(=O)c3cc(O)c(O)c(O)c3)ccc2c1)c1cc(O)c(O)c(O)c1 ; wanted: its pIC50
< 3.70

Given O=C(Oc1cccc2c(OC(=O)c3cc(O)c(O)c(O)c3)cccc12)c1cc(O)c(O)c(O)c1 , state its recorded pIC50.
< 3.82
